Test system: 556581-035-R-J1 tumor spheroid viability, % test/control
Experiment: Anticancer human tumor 556581-035-R-J1 patient-derived ovarian carcinoma cell line growth inhibition
Conditions: second compound 1 µM; first compound 0.0316 µM; hits give low values; spheroids with HUVEC and MSC
Protocol: Multicellular complex tumor spheroid response to DNA repair inhibitors in combination with DNA-damaging drugs This study explores the anticancer activities of DNA-damaging drugs and inhibitors of DNA damage repair, both as single agents and in combinations. […] Twenty-six patient-derived or established malignant cell lines were evaluated representing sarcoma, melanoma, small cell lung cancer (SCLC), non-small cell lung cancer (NSCLC), as well as bladder, ovarian and pancreatic cancers. […]
quantity: viability, T/C (%)
Reply with just the number (in %).

Input line: Supply recorded viability, T/C for CC1COCCN1c1cc(-c2ccnn2C)c2ccnc(-c3ccn[nH]3)c2n1 (stereo unspecified) + Cn1nnc2c(C(N)=O)ncn2c1=O here.
Output line: 93.7

Input line: Supply recorded viability, T/C for CC(C)n1c(=O)n(C)c2cnc3cc(F)c(-c4ccc(OCCCN5CCCCC5)nc4)cc3c21 + Cn1nnc2c(C(N)=O)ncn2c1=O here.
Output line: 109

---

test system: 556581-035-R-J1 tumor spheroid viability, % test/control; assay: Anticancer human tumor 556581-035-R-J1 cell line growth inhibition; details: second compound 0.03 µM; first compound 0.0316 µM; hits give low values; spheroids with HUVEC and MSC;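 also: spheroids exposed to compounds for 7 days before viability read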
Field 'label' (enum: Yes / No). Set to Yes when viability, T/C is strictly under 70%; else No.

Recorded results for 4 molecules are shown here.
Input line: Problem: For the molecule COc1cc(C)[nH]c(=O)c1CN1CCc2c(Cl)cc(C(OC)C3COC3)c(Cl)c2C1=O (stereo unspecified) + CC[C@@]1(O)C(=O)OCc2c1cc1n(c2=O)Cc2cc3c(CN(C)C)c(O)ccc3nc2-1 , is viability, T/C under 70%?
Output line: Yes

Input line: Problem: For the molecule CC(C)n1c(=O)n(C)c2cnc3cc(F)c(-c4ccc(OCCCN5CCCCC5)nc4)cc3c21 + CC[C@@]1(O)C(=O)OCc2c1cc1n(c2=O)Cc2cc3c(CN(C)C)c(O)ccc3nc2-1 , is viability, T/C under 70%?
Output line: No

Input line: Problem: For the molecule CC1COCCN1c1cc(-c2ccnn2C)c2ccnc(-c3ccn[nH]3)c2n1 (stereo unspecified) + CC[C@@]1(O)C(=O)OCc2c1cc1n(c2=O)Cc2cc3c(CN(C)C)c(O)ccc3nc2-1 , is viability, T/C under 70%?
Output line: Yes

Input line: Problem: For the molecule [2H]c1nc(C)nc([2H])c1-c1cc(NC[C@@H](C)c2cccc3c(C(=O)NC)ccnc23)ncn1 + CC[C@@]1(O)C(=O)OCc2c1cc1n(c2=O)Cc2cc3c(CN(C)C)c(O)ccc3nc2-1 , is viability, T/C under 70%?
Output line: No

Next:
Input line: Problem: For the molecule Cc1cc(C)c(CNC(=O)c2cc(-c3ccc(CN4CCOCC4)cc3)cc3c2cnn3C2CCCC2)c(=O)[nH]1 + CC[C@@]1(O)C(=O)OCc2c1cc1n(c2=O)Cc2cc3c(CN(C)C)c(O)ccc3nc2-1 , is viability, T/C under 70%?
Output line: No

---

Tested on: 556581-035-R-J1 tumor spheroid viability, % test/control
Assay: Anticancer human tumor 556581-035-R-J1 cell line growth inhibition;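 also: spheroids exposed to compounds for 7 days before viability read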
Conditions: second compound 10 µM; first compound 3 µM; hits give low values; spheroids with HUVEC and MSC
Method: Multicellular complex tumor spheroid response to DNA repair inhibitors in combination with DNA-damaging drugs This study explores the anticancer activities of DNA-damaging drugs and inhibitors of DNA damage repair, both as single agents and in combinations. […] Twenty-six patient-derived or established malignant cell lines were evaluated representing sarcoma, melanoma, small cell lung cancer (SCLC), non-small cell lung cancer (NSCLC), as well as bladder, ovarian and pancreatic cancers. […]
Item-by-item account of viability, T/C
Reply with just the number (in %).

A selection of reference data follows.
Input line: Supply recorded viability, T/C for CNCc1ccc(-c2cc(-c3nc(-c4ccc(S(=O)(=O)C(C)C)cc4)cnc3N)on2)cc1 + Cn1nnc2c(C(N)=O)ncn2c1=O here.
Output line: 15.3

Input line: Supply recorded viability, T/C for Cn1ncnc1[C@H]1c2n[nH]c(=O)c3cc(F)cc(c23)N[C@@H]1c1ccc(F)cc1 + Cn1nnc2c(C(N)=O)ncn2c1=O here.
Output line: 52.2

Next:
Input line: Supply recorded viability, T/C for Cc1sc2c(c1C)C(c1ccc(Cl)cc1)=NC(CC(=O)Nc1ccc(O)cc1)c1nnc(C)n1-2 (centres undefined) + Cn1nnc2c(C(N)=O)ncn2c1=O here.
Output line: 57.5

Input line: Supply recorded viability, T/C for O=C(c1cc(Cc2n[nH]c(=O)c3ccccc23)ccc1F)N1CCN(C(=O)C2CC2)CC1 + Cn1nnc2c(C(N)=O)ncn2c1=O here.
Output line: 89.1
